- assay_text: Toxicity liver stage against HepG2, at 10uM
- Assay type: cell-based
- Design: test concentration 10 uM, cell line HepG2-A16-CD81EGFP
- test_parameters: human, HepG2-A16-CD81EGFP cells; read-out: INHIBITION
measurement_label: cytotoxicity at 10 µM (%)

molecule	endpoint_result
Cc1cccc(C(=O)N2C[C@@H]3CCN(C(C)C)C[C@@H]3C2)c1	-2.16
Cc1ccnc(NCCNC(=O)Cc2c(C)[nH]c3c(C)ccc(C)c23)c1	-1.89
Cc1cc(C2CCCN2Cc2ccn(C)c(=O)c2)on1 (configuration not stated)	-6.04
Cc1cccc(CN2C[C@@H]3CCCO[C@@H]3[C@H](NS(C)(=O)=O)C2)n1	-8.06
CCc1nc(CN2CCN(C(=O)c3csnn3)CC2)cs1	-9.04
O=C(c1cccc(NCc2cccc(F)c2)c1)N1CCC(O)CC1	5.84
CN(CC1CCOCC1)C(C(=O)O)c1cccc(F)c1F (configuration not stated)	6.89
Cc1ccc(CNC(CN2CCN(C)CC2)c2ccccc2)cc1 (configuration not stated)	9.19
Cn1ccc(C(=O)NC2CCC23CCN(C(=O)C2CCOCC2)CC3)c1 (configuration not stated)	-81.4
COC(=O)Cn1c(=O)[nH]c2cn(-c3ccc(C)cc3)c(=O)n21	0.413
Cc1nnc2n1CCN(Cc1ncc(-c3ccccc3)o1)C2	-3.78
CN(Cc1cncs1)C1CCN(C(=O)OC(C)(C)C)CC1	5.94
CO[C@@H]1CN(c2ccccc2)S(=O)(=O)[C@@]12CCN(S(C)(=O)=O)C2	2.21
O=C(NCCc1ccccn1)Nc1cc(C(F)(F)F)c[nH]c1=O	-6.78
COc1ccc(F)cc1C(C)NC(=O)Nc1nncs1 (configuration not stated)	12.4
c1nc(N2CCN(Cc3nnnn3C3CC3)CC2)c2sccc2n1	24.5
NC(=O)C1CCC(NC(=O)COc2ccc(Cl)c(Cl)c2)CC1 (configuration not stated)	-12.5
CCN1C[C@@H]2CN(Cc3cccs3)C[C@@H]2C1=O	-3.19
CCC(=O)NCC(CC)Oc1cccc(F)c1 (configuration not stated)	-44
Cc1nn(C)cc1-c1cc(C(F)F)nc(NC2CCCCC2)n1	1.84
OC1(CNCc2noc(Cc3ccccc3)n2)CCCNC1 (configuration not stated)	5.19
O=C(CNc1ccc(OCC2CCOCC2)cc1)NCc1ccco1	3.43
CC(C)N(C)C(=O)C1=NOC2(CCN(C(=O)c3ccncc3)C2)C1 (configuration not stated)	-0.237
O=C(NCCc1nncn1C1CC1)C1(Cc2ccccc2)CCC1	7.87
Cn1ccc2c(C(=O)N3CCCC3c3noc(C4CC4)n3)cccc21 (configuration not stated)	-7.82
COc1cc(N2C[C@@H]3COC[C@]3(COCc3ccccn3)C2)ncn1	-73.2
Cc1ccc(-n2nnc(CC(=O)N3CCN(C(C)C)CC3)c2C)cc1	-3.36
CCOc1ccc(Cl)cc1C1CCCN1 (configuration not stated)	-12.3
CNC(=O)C1CCN(c2ncc3c(n2)CCN3c2ccccc2)C1 (configuration not stated)	-10.1
CCc1cc(N2CCS(=O)(=O)CC2)n2nc(C)c(C)c2n1	-4.02
O=C(c1ccncc1F)N1CCc2ncnc(N3CCOCC3)c2CC1	-75
CS(=O)(=O)NCC1CCCN(C(=O)COCC2CC2)C1 (configuration not stated)	4.28
Cc1oc(-c2nc(C#N)c(N(C)C)o2)cc1S(=O)(=O)N1CCCCCC1	-13.9
O=C(CCn1cncn1)NCC1CCS(=O)(=O)C1 (configuration not stated)	-48.3
Cc1nc(CN2CCOCC3(CCN(c4cccnc4)CC3)C2)cs1	-12.2
CC(C)n1c2ccccc2c2c1cc(C(=O)N(C)C)n2S(C)(=O)=O	-90.8
Cc1cc(C)n(C2CCCN(C(=O)C3=NN(C)C(=O)CC3)C2)n1 (configuration not stated)	-9.21
CN(C)C(=O)c1c[nH]nc1-c1ccc(CNC(=O)c2cnccn2)cc1	-0.56
O=C1CO[C@@H]2CN(S(=O)(=O)c3ccccc3)C[C@H]2N1CC1CC1	-3.1
CN(C(=O)CCNC(=O)C1COc2ccccc21)c1ccccc1 (configuration not stated)	-7.53
COc1ccccc1CN1C[C@@H](F)[C@@H](OCc2nc3ccccc3[nH]2)C1	9.55
NC(=O)CN1C[C@@H](c2ccccc2F)[C@@]2(CCCCC(=O)N2)C1	7.04
O=C(C1CCC1)N1CCCC(c2ccnc(Nc3cnccn3)n2)C1 (configuration not stated)	-22.7
CC(CN1CCCC1=O)NC(=O)c1ccc(-c2ccco2)[nH]c1=O (configuration not stated)	-5.04
CCCn1ncnc1C(C)NC(=O)CC1CCN(C(C)C)CC1 (configuration not stated)	-150
CCc1cc(NCCc2cccnc2)n2nc(C)c(C)c2n1	2.12
O=C1COC2(CCN(CC3CC3)CC2)CN1c1cncnc1	-1.87
